assay: logP (partitioning between octanol and water); format: physicochemical; conditions: read-out: logP
measure: logP

Q: Value lookup for logP; key = "Cn1c(COP(=O)(NCCBr)NCCBr)cnc1[N+](=O)[O-]"
A: < 0

====

assay: in vivo; conditions: Balb/c, mouse, iv, 50 mg/kg
measure: AUC (ng·h/mL)
One number for each entry, in ng·h/mL.

Q: Value lookup for AUC; key = Cn1c(COP(N)(=O)N(CCCl)CCCl)cnc1[N+](=O)[O-] (stereo not shown) [Compound 1]
A: 12500

====

For each record, write down the corresponding AUC.
test: Pharmacokinetics after intravenous or intraperitoneal administration in mice (Table 2B); conditions: CD-1; Balb/c for Compound 1, mouse, plasma, iv, 50 mg/kg
One number for each entry, in µg·h/mL.

Q: Value lookup for AUC; key = Cn1c(COP(N)(=O)N(CCCl)CCCl)cnc1[N+](=O)[O-] (centres unmarked)
A: 12.5

Switching to the query record.
Q: Value lookup for AUC; key = "O=[N+]([O-])c1ccc(COP(=O)(NCCCl)NCCCl)o1"
A: 2.3

====

system: NCI-H460 cells; experiment: Antiproliferation assay (Alamar Blue), anoxia vs air; details: read-out: IC50 H460 Anoxia
measure: IC50 (nM)
One number for each entry, in nM.

Illustrative cases are given below, each with its answer.
Q: Value lookup for IC50; key = C[C@H](CCl)NP(=O)(N[C@H](C)CCl)OCc1ccc(-c2ccc([N+](=O)[O-])o2)cc1 [Compound 57]
A: 14000

Q: Value lookup for IC50; key = C[C@H](CBr)NP(=O)(N[C@H](C)CBr)OCc1cnc([N+](=O)[O-])n1C [Compound 66]
A: 300

---
Q: Value lookup for IC50; key = C[C@H](CCl)NP(=O)(N[C@H](C)CCl)OCc1ccc([N+](=O)[O-])s1 [Compound 39]
A: 200

====

assay: in vivo; conditions: CD-1, mouse, ip, 50 mg/kg
For each record, write down the corresponding half-life.
One number for each entry, in min.

Illustrative cases are given below, each with its answer.
Q: Value lookup for half-life; key = "Cn1c(COP(=O)(NCCCl)NCCCl)cnc1[N+](=O)[O-]"
A: 11

Q: Value lookup for half-life; key = "O=[N+]([O-])c1ccc(COP(=O)(NCCCl)NCCCl)o1"
A: 9.6

Give me half-life for each of these compounds, listed below.
1. CN(CCCl)P(=O)(OCc1cnc([N+](=O)[O-])n1C)N(C)CCCl
2. O=[N+]([O-])c1ccc(COP(=O)(NCCBr)NCCBr)o1

A:
2.56
4.1

====

For each record, write down the corresponding half-life.
experiment: in vivo; details: mouse, ip, t ½, intraperitoneal administration in mice, mice
Give bare numbers, in min.

Q: Value lookup for half-life; key = Cn1c(COP(=O)(NCCBr)NCCBr)cnc1[N+](=O)[O-] [Compound 25]
A: 10.8

Switching to the query record.
Q: Value lookup for half-life; key = Cn1c(COP(=O)(NCCCl)NCCCl)cnc1[N+](=O)[O-] [Compound 36]
A: 10.8

====

system: IRS1SF cells (XRCC3); test: Antiproliferation assay - DNA mutant repair cells; conditions: Cricetulus griseus, 2 h, read-out: IC50 IRS1SF Anoxia
measure: pIC50
Numbers only, as −log10 of the molar value.

Q: Value lookup for pIC50; key = "Cn1c(COP(=O)(NCCCl)NCCCl)cnc1[N+](=O)[O-]"
A: 6.52

Switching to the query record.
Q: Value lookup for pIC50; key = "Cn1c(COP(=O)(NCCBr)NCCBr)cnc1[N+](=O)[O-]"
A: 5.70

====

assay: In vivo plasma or tumor pharmacokinetics of Compound 25 (Table 4); design: species or system CD-1 mice (nude mice where noted); conditions: mouse, plasma, po; 50 mg/kg p.o., Saline, CD-1 mice; read-out: F (Bioavailability)
measure: bioavailability (%)
One number for each entry, in %.

Q: Value lookup for bioavailability; key = Cn1c(COP(=O)(NCCBr)NCCBr)cnc1[N+](=O)[O-] [Compound 25]
A: 13.6

====

system: NCI-H460 cells; experiment: Antiproliferation assay (Alamar Blue), anoxia vs air; conditions: read-out: IC50 H460 Anoxia; anoxia, 2 h exposure
For each record, write down the corresponding pIC50.
Answers are plain numbers, as −log10 of the molar value.

Illustrative cases are given below, each with its answer.
Q: Value lookup for pIC50; key = Cc1csc(C(C)OP(=O)(NCCCl)NCCCl)c1[N+](=O)[O-] (centres unmarked)
A: 6.30

Q: Value lookup for pIC50; key = CC(OP(=O)(N[C@H](C)CCl)N[C@H](C)CCl)c1ccc([N+](=O)[O-])s1 (some centres unmarked)
A: 7.00

Q: Value lookup for pIC50; key = CC(OP(=O)(NCCBr)NCCBr)c1ccc(OCc2cnc([N+](=O)[O-])n2C)c([N+](=O)[O-])c1 (centres unmarked)
A: 6.52

Q: Value lookup for pIC50; key = "N#Cc1cc(COP(=O)(NCCCl)NCCCl)sc1[N+](=O)[O-]"
A: 7.00

Q: Value lookup for pIC50; key = "N#Cc1cc(C#CCOP(=O)(NCCBr)NCCBr)sc1[N+](=O)[O-]"
A: 7.00

Q: Value lookup for pIC50; key = Cc1csc(C(C)OP(=O)(NCCBr)NCCBr)c1[N+](=O)[O-] (centres unmarked)
A: 7.70

Give me pIC50 for each of these compounds, listed below.
1. N#Cc1cc(COP(=O)(NCCBr)NCCBr)sc1[N+](=O)[O-]
2. Cn1c([N+](=O)[O-])nc(Br)c1-c1ccc(COP(=O)(NCCBr)NCCBr)cc1

A:
1: 8.00; 2: 4.60

====

experiment: In vivo plasma or tumor pharmacokinetics of Compound 25 (Table 4); design: species or system CD-1 mice (nude mice where noted); settings: nude, mouse, plasma, ip, 150 mg/kg, 150 mg/kg i.p., Saline, nude mice with H460 tumor
measure: Tmax (min)
Give bare numbers, in min.

Q: Value lookup for Tmax; key = "Cn1c(COP(=O)(NCCBr)NCCBr)cnc1[N+](=O)[O-]"
A: 5

====

tested on: MES-SA/Dx5 cells; test: Antiproliferation assay (Alamar Blue), anoxia vs air; details: Homo sapiens, MES-SA/Dx5, 2 h, read-out: IC50 MES-SA/Dx5 Air
For each record, write down the corresponding IC50.

Illustrative cases are given below, each with its answer.
Q: Value lookup for IC50; key = "O=[N+]([O-])c1ccc(COP(=O)(NCCBr)NCCBr)o1"
A: 0.8 µM

Q: Value lookup for IC50; key = "Cn1c(COP(=O)(N(CCCl)C2CC2)N(CCCl)C2CC2)cnc1[N+](=O)[O-]"
A: 83 µM

Q: Value lookup for IC50; key = "Cn1c(COP(=O)(NCCCl)NCCCl)cnc1[N+](=O)[O-]"
A: > 100 µM

Q: Value lookup for IC50; key = "Cn1c(COP(=O)(NCCBr)NCCBr)cnc1[N+](=O)[O-]"
A: > 100 µM

Q: Value lookup for IC50; key = Cn1c(COP(N)(=O)N(CCCl)CCCl)cnc1[N+](=O)[O-] (stereo not drawn)
A: > 100 µM

Switching to the query record.
Q: Value lookup for IC50; key = "Cn1c(COP(=O)(N(CCCl)CCCl)N(CCCl)CCCl)cnc1[N+](=O)[O-]"
A: > 100 µM

====

assay: in vivo; conditions: CD-1, mouse, ip, 20 mg/kg
measure: Tmax (min)
Give bare numbers, in min.

Q: Value lookup for Tmax; key = "C[C@H](CCl)NP(=O)(N[C@H](C)CCl)OCc1cnc([N+](=O)[O-])n1C"
A: 2

====

experiment: Plasma stability (Table 2B); settings: 30 min
measure: Plasma stability (% at 30 min) (%)
Give bare numbers, in %.

Illustrative cases are given below, each with its answer.
Q: Value lookup for Plasma stability (% at 30 min); key = "Cn1c(COP(=O)(NCCCl)NCCCl)cnc1[N+](=O)[O-]"
A: 60

Q: Value lookup for Plasma stability (% at 30 min); key = "O=[N+]([O-])c1ccc(COP(=O)(NCCCl)NCCCl)o1"
A: 84

Q: Value lookup for Plasma stability (% at 30 min); key = "CN(CCCl)P(=O)(OCc1cnc([N+](=O)[O-])n1C)N(C)CCCl"
A: 100

Give me Plasma stability (% at 30 min) for each of these molecules, listed below.
1. Cn1c(COP(=O)(N(CCCl)CCCl)N(CCCl)CCCl)cnc1[N+](=O)[O-]
2. Cn1c(COP(=O)(N(CCCl)C2CC2)N(CCCl)C2CC2)cnc1[N+](=O)[O-]
3. Cn1c(COP(N)(=O)N(CCCl)CCCl)cnc1[N+](=O)[O-] (centres unmarked)

A:
[60, 85, 100]

Give me Plasma stability (% at 30 min) for each of these molecules, listed below.
1. O=[N+]([O-])c1ccc(COP(=O)(NCCCl)NCCCl)s1
2. Cn1c(COP2(=O)N(CCBr)CCCN2CCBr)cnc1[N+](=O)[O-]

A:
1. 85
2. 85

Attribution: patent US8507464B2
